- target-or-system: Sodium/glucose cotransporter 2 (Homo sapiens)
- experiment-description: Inhibition of human SGLT2 expressed in CHO cells assessed as inhibition of [14C]-alpha-methyl-D-glucopyranoside transport after 60 mins by scintillation counting
- Assay type: cell-based
pIC50: −log10 of the molar value.
measured-endpoint: pIC50

A. CC(C)Cn1c(CCc2ccc(Cl)cc2)nnc1CN1C(=O)COc2ccc(Cl)cc21
B. CCn1c(CN2C(=O)COc3ccc(C)cc32)nnc1SCc1ccc(Cl)cc1
C. CCCn1c(CCc2ccc(Cl)cc2)nnc1CN1C(=O)COc2ccc(Cl)cc21
D. CCn1c(CN2C(=O)COc3ccc([N+](=O)[O-])cc32)nnc1SCc1ccc(Cl)cc1
E. CCCn1c(CCc2ccc(Cl)cc2)nnc1CN1C(=O)COc2c(Cl)cc(Cl)cc21
Place the item with the largest pIC50 first, then continue in falling order, using the list above. Please list the labels in the order you were asked to rank them.
E, C, B, A, D

* * *

- experiment-description: Metabolic stability in rat liver microsomes assessed as compound remaining after 30 mins
- Type: ADME, Microsome
- measurement-conditions: read-out: Stability
measured-endpoint: remaining at 0.5 h (%)

[[record]]
substance_smiles = "O=C1COc2c(Cl)cc(Cl)cc2N1Cc1nnc(CCc2ccc(Cl)cc2)n1CCC(F)(F)F"
unit = "%"
result = 4

[[record]]
substance_smiles = "CCCn1c(CCc2ccc(Cl)cc2)nnc1CN1C(=O)COc2c(Cl)cc(Cl)cc21"
unit = "%"
result = 4


* * *

- target-or-system: Sodium/glucose cotransporter 2 (Homo sapiens)
- Sequence (P31639 whole entry): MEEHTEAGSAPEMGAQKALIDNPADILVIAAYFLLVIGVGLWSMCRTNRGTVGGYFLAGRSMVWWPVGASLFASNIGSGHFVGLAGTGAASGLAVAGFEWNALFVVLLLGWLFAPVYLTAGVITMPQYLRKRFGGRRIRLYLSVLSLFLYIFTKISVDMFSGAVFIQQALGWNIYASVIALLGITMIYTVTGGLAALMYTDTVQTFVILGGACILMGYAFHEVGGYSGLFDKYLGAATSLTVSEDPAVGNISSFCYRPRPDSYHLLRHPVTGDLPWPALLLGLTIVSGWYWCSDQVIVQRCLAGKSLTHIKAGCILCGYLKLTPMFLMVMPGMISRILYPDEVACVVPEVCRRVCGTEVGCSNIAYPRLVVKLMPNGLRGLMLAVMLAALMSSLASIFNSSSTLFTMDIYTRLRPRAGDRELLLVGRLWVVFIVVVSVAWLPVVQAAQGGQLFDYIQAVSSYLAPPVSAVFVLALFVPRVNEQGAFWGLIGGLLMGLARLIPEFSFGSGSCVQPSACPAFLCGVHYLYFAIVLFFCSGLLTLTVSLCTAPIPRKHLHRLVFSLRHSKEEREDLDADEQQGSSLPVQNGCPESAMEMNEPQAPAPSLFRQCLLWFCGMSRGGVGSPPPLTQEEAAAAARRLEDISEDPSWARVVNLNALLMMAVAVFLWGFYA
- experiment-description: Displacement of [3H]dapagliflozin from human SGLT2 expressed in CHO cells after 60 mins by scintillation counting
- Format: cell-based
measured-endpoint: IC50 (nM)
# unit: nM | format: bare number

Data request, read-out IC50, for `CCCn1c(CCc2ccc(Cl)cc2)nnc1CN1C(=O)COc2c(Cl)cc(Cl)cc21`
16

* * *

- target-or-system: Sodium/glucose cotransporter 2 (Homo sapiens)
- experiment-description: Inhibition of human SGLT2 expressed in CHO cells assessed as inhibition of [14C]-alpha-methyl-D-glucopyranoside transport after 60 mins by scintillation counting
- Type: cell-based
measured-endpoint: IC50 (nM)

[[record]]
substance_smiles = "O=C1COc2ccc(Cl)cc2N1Cc1nnc(CCc2ccc(Cl)cc2)n1CCC(F)(F)F"
target_or_system = "Sodium/glucose cotransporter 2 (Homo sapiens)"
measured_endpoint = "IC50"
result = 70

[[record]]
substance_smiles = "CCn1c(CN2C(=O)COc3cc(Cl)ccc32)nnc1SCc1ccc(Cl)cc1"
target_or_system = "Sodium/glucose cotransporter 2 (Homo sapiens)"
measured_endpoint = "IC50"
result = 430

[[record]]
substance_smiles = "CCn1c(CN2C(=O)COc3cc(Br)ccc32)nnc1SCc1ccc(Cl)cc1"
target_or_system = "Sodium/glucose cotransporter 2 (Homo sapiens)"
measured_endpoint = "IC50"
result = 520

[[record]]
substance_smiles = "O=C1COc2ccc(Cl)cc2N1Cc1nnc(CCc2ccc(Cl)cc2)n1CC1CC1"
target_or_system = "Sodium/glucose cotransporter 2 (Homo sapiens)"
measured_endpoint = "IC50"
result = 30

[[record]]
substance_smiles = "CCCn1c(CCc2ccc(Cl)cc2)nnc1CN1C(=O)COc2ccc(C(F)(F)F)cc21"
target_or_system = "Sodium/glucose cotransporter 2 (Homo sapiens)"
measured_endpoint = "IC50"
result = 180


A. O=C1COc2ccc(Cl)cc2N1Cc1nnc(CCc2ccc(Cl)cc2)n1C1CC1
B. CCn1c(CCc2ccc(Cl)cc2)nnc1CN1C(=O)COc2ccc(C(F)(F)F)cc21
Which value of IC50 is greater, the one for A or the one for B ? To answer, give the label that identifies your chosen option.
A

* * *

- experiment-description: Metabolic stability in human liver microsomes assessed as compound remaining after 30 mins
- Format: ADME, Microsome
- measurement-conditions: read-out: Stability
measured-endpoint: remaining at 0.5 h (%)

[[record]]
substance_smiles = "O=C1COc2c(Cl)cc(Cl)cc2N1Cc1nnc(CCc2ccc(Cl)cc2)n1CCC(F)(F)F"
result = 4

[[record]]
substance_smiles = "CCCn1c(CCc2ccc(Cl)cc2)nnc1CN1C(=O)COc2c(Cl)cc(Cl)cc21"
result = 4


* * *

- target-or-system: SGLT1 protein (Mus musculus)
- Sequence (Q9QXI6 whole entry): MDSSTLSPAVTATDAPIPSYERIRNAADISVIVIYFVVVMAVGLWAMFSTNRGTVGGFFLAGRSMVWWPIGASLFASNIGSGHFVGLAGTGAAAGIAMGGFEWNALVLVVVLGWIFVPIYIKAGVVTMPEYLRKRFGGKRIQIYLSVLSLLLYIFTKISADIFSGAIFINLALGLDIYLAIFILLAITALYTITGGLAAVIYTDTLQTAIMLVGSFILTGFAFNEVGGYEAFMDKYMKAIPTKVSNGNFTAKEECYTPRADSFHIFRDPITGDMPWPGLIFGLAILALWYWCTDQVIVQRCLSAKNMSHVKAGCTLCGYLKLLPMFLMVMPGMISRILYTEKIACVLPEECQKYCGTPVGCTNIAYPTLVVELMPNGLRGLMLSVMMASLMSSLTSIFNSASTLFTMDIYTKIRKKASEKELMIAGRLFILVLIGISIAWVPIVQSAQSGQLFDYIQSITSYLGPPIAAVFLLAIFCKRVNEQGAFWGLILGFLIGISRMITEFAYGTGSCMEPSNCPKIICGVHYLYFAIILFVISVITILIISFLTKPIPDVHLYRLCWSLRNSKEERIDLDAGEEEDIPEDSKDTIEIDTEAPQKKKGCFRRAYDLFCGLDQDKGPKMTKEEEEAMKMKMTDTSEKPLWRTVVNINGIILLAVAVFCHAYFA
- experiment-description: Inhibition of mouse SGLT1 expressed in CHO cells assessed as inhibition of [14C]-alpha-methyl-D-glucopyranoside transport after 60 mins by scintillation counting
- Format: cell-based
measured-endpoint: IC50 (µM)
Use µM as the unit, but write only the number.

Name the recorded IC50 for `Cn1c(CN2C(=O)CSc3ccc(C(F)(F)F)cc32)nnc1SCc1ccc(Cl)cc1` .
3

* * *

- target-or-system: Sodium/glucose cotransporter 2 (Homo sapiens, UniProt P31639)
- experiment-description: Inhibition of human SGLT2 expressed in CHO cells assessed as inhibition of [14C]-alpha-methyl-D-glucopyranoside transport after 60 mins by scintillation counting
- Format: cell-based
measured-endpoint: IC50 (nM)

[[record]]
substance_smiles = "CCn1c(CN2C(=O)CSc3ccc(C(F)(F)F)cc32)nnc1SCc1ccc(Cl)cc1"
unit = "nM"
result = 370


P. CCn1c(CN2C(=O)COc3ccc(Cl)cc32)nnc1SCc1ccc(Cl)cc1
Q. O=C1CSc2ccc(C(F)(F)F)cc2N1Cc1nnc(SCc2ccc(Cl)cc2)n1C1CC1
Hi team, can someone confirm which has the larger IC50: P or Q ? Thanks. Answer with the label corresponding to your selection.
Q
(Q: 1100 nM, P: 150 nM)

A. Cn1c(CN2C(=O)CSc3ccc(C(F)(F)F)cc32)nnc1SCc1ccc(Cl)cc1
B. CCn1c(CN2C(=O)COc3ccc(Br)cc32)nnc1SCc1ccc(Cl)cc1
C. CCn1c(CN2C(=O)COc3c(Cl)cccc32)nnc1SCc1ccc(Cl)cc1
Hi! Can you put these in order of IC50, lowest number first? Returns: the labels arranged in the requested order.
B, C, A

I. CC(C)n1c(CN2C(=O)CSc3ccc(C(F)(F)F)cc32)nnc1SCc1ccc(Cl)cc1
II. CCn1c(CN2C(=O)COc3ccc(C(F)(F)F)cc32)nnc1SCc1ccc(Cl)cc1
III. CCCCn1c(CCc2ccc(Cl)cc2)nnc1CN1C(=O)COc2ccc(Cl)cc21
IV. O=C1CSc2ccc(C(F)(F)F)cc2N1Cc1nnc(SCc2ccc(Cl)cc2)n1-c1ccccc1
Falling order of IC50, please. Show the ranking through the labels, in the order asked for.
IV, I, II, III

* * *

- target-or-system: Sodium/glucose cotransporter 1 (Homo sapiens, UniProt P13866)
- Sequence (P13866 whole entry): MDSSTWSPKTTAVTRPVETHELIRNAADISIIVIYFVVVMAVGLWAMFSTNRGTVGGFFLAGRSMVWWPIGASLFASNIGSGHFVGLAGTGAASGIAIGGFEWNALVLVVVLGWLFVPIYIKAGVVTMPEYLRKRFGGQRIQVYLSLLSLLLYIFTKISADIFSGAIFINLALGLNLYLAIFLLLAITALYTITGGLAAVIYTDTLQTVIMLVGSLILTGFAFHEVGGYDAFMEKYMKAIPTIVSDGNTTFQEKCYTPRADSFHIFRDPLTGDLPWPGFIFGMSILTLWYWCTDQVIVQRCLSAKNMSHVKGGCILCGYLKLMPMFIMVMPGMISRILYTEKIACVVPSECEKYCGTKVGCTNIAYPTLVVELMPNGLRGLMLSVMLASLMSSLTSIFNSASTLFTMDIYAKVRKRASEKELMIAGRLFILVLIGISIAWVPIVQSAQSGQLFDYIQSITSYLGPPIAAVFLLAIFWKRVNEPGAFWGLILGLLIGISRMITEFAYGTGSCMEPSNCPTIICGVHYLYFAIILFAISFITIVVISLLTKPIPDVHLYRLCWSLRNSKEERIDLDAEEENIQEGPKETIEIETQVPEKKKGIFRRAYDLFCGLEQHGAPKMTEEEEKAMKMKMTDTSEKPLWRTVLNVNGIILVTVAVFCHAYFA
- experiment-description: Inhibition of human SGLT1 expressed in CHO cells assessed as inhibition of [14C]-alpha-methyl-D-glucopyranoside transport after 60 mins by scintillation counting
measured-endpoint: IC50 (µM)

Consider the following illustrative entries.
[[record]]
substance_smiles = "CCn1c(CN2C(=O)COc3cc(Br)ccc32)nnc1SCc1ccc(Cl)cc1"
measured_endpoint = "IC50"
result = 2.53

[[record]]
substance_smiles = "O=C1CSc2ccc(C(F)(F)F)cc2N1Cc1nnc(SCc2ccc(Cl)cc2)n1-c1ccccc1"
measured_endpoint = "IC50"
result = 3.47

[[record]]
substance_smiles = "CC(C)n1c(CN2C(=O)CSc3ccc(C(F)(F)F)cc32)nnc1SCc1ccc(Cl)cc1"
measured_endpoint = "IC50"
result = 2

[[record]]
substance_smiles = "CCn1c(CN2C(=O)COc3ccc(Cl)cc32)nnc1SCc1ccc(Cl)cc1"
measured_endpoint = "IC50"
result = 7.34

[[record]]
substance_smiles = "CCCCn1c(CCc2ccc(Cl)cc2)nnc1CN1C(=O)COc2ccc(Cl)cc21"
measured_endpoint = "IC50"
result = 11.8

[[record]]
substance_smiles = "O=C1COc2ccc(Cl)cc2N1Cc1nnc(CCc2ccc(Cl)cc2)n1CCC(F)(F)F"
measured_endpoint = "IC50"
result = 13.8


P. Cn1c(CN2C(=O)CSc3ccc(C(F)(F)F)cc32)nnc1SCc1ccc(Cl)cc1
Q. CCn1c(CCc2ccc(Cl)cc2)nnc1CN1C(=O)COc2ccc(C(F)(F)F)cc21
R. O=C1COc2ccc(Cl)cc2N1Cc1nnc(CCc2ccc(Cl)cc2)n1C1CC1
S. CCn1c(CN2C(=O)CSc3ccc(C(F)(F)F)cc32)nnc1SCc1ccc(Cl)cc1
T. CCn1c(CN2C(=O)COc3cc(Cl)ccc32)nnc1SCc1ccc(Cl)cc1
List from greatest to least IC50. List the labels in the requested order.
Q, R, P, S, T

I. CC(C)Cn1c(CCc2ccc(Cl)cc2)nnc1CN1C(=O)COc2ccc(Cl)cc21
II. CCCn1c(CCc2ccc(Cl)cc2)nnc1CN1C(=O)COc2ccc(C(F)(F)F)cc21
Lowest IC50? choose I or II The response must carry the label of the picked entry.
I

1. CCn1c(CN2C(=O)COc3ccc(Br)cc32)nnc1SCc1ccc(Cl)cc1
2. CCCn1c(CCc2ccc(Cl)cc2)nnc1CN1C(=O)COc2c(Cl)cc(Cl)cc21
3. CCCn1c(CCc2ccc(Cl)cc2)nnc1CN1C(=O)COc2ccc(Cl)cc21
Please produce an ascending ranking of these compounds based on IC50. Give the labels in the order requested.
1, 2, 3
(1: 5.32 µM, 2: 9.14 µM, 3: 13.6 µM)
